Values compiled from ChEMBL document CHEMBL1152602.

Catalogue of molecules with associated IC50
test: Inhibition of PDE1
experimental_endpoint: IC50 (µM)

INSERT INTO results (structure_smiles_string, experimental_endpoint, observed_result) VALUES
  ('Cc1ccc(-c2cc(-c3ccc(Cl)cc3)c3c(ncn4c(=O)c5cc(Br)ccc5nc34)n2)cc1', 'IC50', 66.4),
  ('O=c1c2ccccc2nc2c3c(-c4ccccc4)cc(-c4ccc(Cl)cc4)nc3ncn12', 'IC50', 80.6),
  ('O=c1c2cc(Br)cc(Br)c2nc2c3c(-c4ccc(Cl)cc4)csc3ncn12', 'IC50', 83.5),
  ('COc1ccc(-c2cc(-c3ccccc3)nc3ncn4c(=O)c5cc(Br)ccc5nc4c23)cc1', 'IC50', 76.6),
  ('O=c1c2cc(Br)cc(Br)c2nc2c3c(-c4ccccc4)cc(-c4ccc(Cl)cc4)nc3ncn12', 'IC50', 78),
  ('O=c1c2cc(Br)ccc2nc2c3c4c(sc3ncn12)CCCC4', 'IC50', 128),
  ('Cc1ccc(-c2cc(-c3ccccc3)nc3ncn4c(=O)c5cc(Br)cc(Br)c5nc4c23)cc1', 'IC50', 52.4),
  ('O=c1c2ccccc2nc2c3c(-c4ccc([N+](=O)[O-])cc4)cc(-c4ccc([N+](=O)[O-])cc4)nc3ncn12', 'IC50', 83.7),
  ('Cc1sc2ncn3c(=O)c4ccccc4nc3c2c1C', 'IC50', 295);
